Molecular target: recombinant human Cox-2 (r-hu Cox-2) (Homo sapiens)
Construct: made in house; host or cells: baculovirus/Sf9 insect cells (microsomes)
Sequence (P35354 18-604): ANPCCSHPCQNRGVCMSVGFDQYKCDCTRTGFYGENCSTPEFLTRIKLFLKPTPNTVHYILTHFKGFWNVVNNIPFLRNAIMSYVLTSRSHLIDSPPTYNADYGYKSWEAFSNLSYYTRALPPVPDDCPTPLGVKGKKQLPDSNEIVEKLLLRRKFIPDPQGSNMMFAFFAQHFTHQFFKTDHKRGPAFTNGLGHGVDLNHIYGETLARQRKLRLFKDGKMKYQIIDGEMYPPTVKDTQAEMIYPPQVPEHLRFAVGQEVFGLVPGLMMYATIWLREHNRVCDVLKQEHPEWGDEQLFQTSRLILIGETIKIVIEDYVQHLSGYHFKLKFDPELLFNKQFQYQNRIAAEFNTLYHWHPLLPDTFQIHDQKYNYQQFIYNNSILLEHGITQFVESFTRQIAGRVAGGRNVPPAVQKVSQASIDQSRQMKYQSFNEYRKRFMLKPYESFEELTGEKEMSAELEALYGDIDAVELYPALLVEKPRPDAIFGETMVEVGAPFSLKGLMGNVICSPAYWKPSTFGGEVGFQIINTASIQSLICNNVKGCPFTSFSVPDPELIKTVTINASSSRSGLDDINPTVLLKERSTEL
Test: Recombinant human PGHS-2 enzyme assay (RHUCX2)
Assay type: biochemical
Conditions: 0.1 μM; read-out: RHUCX2 % Inh. at Dose
Measurement type: inhibition at 0.1 µM (%)

Below, each entry is followed by its recorded inhibition at 0.1 µM result.
CS(=O)(=O)c1ccc(-c2cnn(Cc3ccccc3)c(=O)c2-c2cc3ccccc3o2)cc1 [Example 318] ... 77
Cc1ccc(-c2c(-c3ccc(S(N)(=O)=O)cc3)cnn(-c3ccc(F)c(F)c3)c2=O)cc1F [Example 386] ... 63

1: CC(c1cccc(F)c1)n1ncc(-c2ccc(S(N)(=O)=O)cc2)c(-c2ccc(F)cc2)c1=O (stereo not drawn) [Example 144]
2: NS(=O)(=O)c1ccc(-c2cnn(CC(F)(F)F)c(=O)c2-c2ccc(Cl)cc2)cc1 [Example 69]
3: CS(=O)(=O)c1ccc(-c2cnn(C3C4CC5CC(C4)CC3C5)c(=O)c2-c2ccc(F)cc2)cc1 (stereo not drawn) [Example 132]
Problem: Order by inhibition at 0.1 µM, ascending. Answer by listing the labels in the requested order.
Result: 2, 3, 1
(2: 29%, 3: 43%, 1: 78%)
